// provenance: ChEMBL document CHEMBL1149559

experiment: Toxicity in human erythrocytes assessed as hemolytic activity at 1000 ug/ml after 1 hr; type: cell-based, Erythrocyte; details: read-out: Activity
Result type: hemolysis at 1 h, 1000 ug/ml (%)
Lab book: enter the figure in %, no units written.

input: Which measured hemolysis at 1 h, 1000 ug/ml value corresponds to C=C[C@H]1C[N@@]2CC[C@H]1C[C@H]2[C@H](O)c1ccnc2ccc(OC)cc12 ?
output: 0

input: What do you get for C=CC1C[N+]2(CC(=O)c3ccc(Br)cc3)CCC1CC2[C@H](O)c1ccnc2ccc(OC)cc12.[Br-] (stereo partly specified) ?
output: 7

input: Next compound: C=CC1C[N+]2(CC(=O)c3cccc4ccccc34)CCC1CC2[C@H](O)c1ccnc2ccc(OC)cc12.[Br-] (stereo partly specified)
output: 17

input: What about C=CC1C[N+]2(CC(=O)c3ccc(OC)cc3)CCC1CC2[C@H](O)c1ccnc2ccc(OC)cc12.[Br-] (stereo partly specified) ?
output: 0

input: Lookup C=CC1C[N+]2(CC(=O)c3ccc([N+](=O)[O-])cc3)CCC1CC2[C@H](O)c1ccnc2ccc(OC)cc12.[Br-] (stereo partly specified)
output: 0

input: Try this compound next: C=CC1C[N+]2(CC(=O)c3ccccc3)CCC1CC2[C@H](O)c1ccnc2ccc(OC)cc12.[Br-] (stereo partly specified)
output: 0

* * *

tested on: Staphylococcus aureus; experiment: Antibacterial activity against methicillin-resistant Staphylococcus aureus CMAH 0504 at 30 ug/ml by disk diffusion method; type: functional; conditions: read-out: IZ
Reported zone of inhibition at 30 µg/mL by item:
Express the result in mm but write the number alone.

input: I am curious: what zone of inhibition at 30 µg/mL value has been reported for CN[C@H](CC(C)C)C(=O)N[C@H]1C(=O)N[C@@H](CC(N)=O)C(=O)N[C@H]2C(=O)N[C@H]3C(=O)N[C@H](C(=O)N[C@H](C(=O)O)c4cc(O)cc(O)c4-c4cc3ccc4O)[C@H](O)c3ccc(c(Cl)c3)Oc3cc2cc(c3O[C@@H]2O[C@H](CO)[C@@H](O)[C@H](O)[C@H]2O[C@H]2C[C@](C)(N)[C@H](O)[C@H](C)O2)Oc2ccc(cc2Cl)[C@H]1O [VANCOMYCIN] ?
output: 22

input: Likewise for C=CC1C[N+]2(CC(=O)c3cccc4ccccc34)CCC1CC2[C@H](O)c1ccnc2ccc(OC)cc12.[Br-] (stereo not given in full) ?
output: 23

input: And the next one, C=CC1C[N+]2(CC(=O)c3ccc(Br)cc3)CCC1CC2[C@H](O)c1ccnc2ccc(OC)cc12.[Br-] (stereo not given in full) ?
output: 22

input: Check O=C(N[C@H](CO)[C@H](O)c1ccc([N+](=O)[O-])cc1)C(Cl)Cl [CHLORAMPHENICOL] too.
output: 26

input: Next entry: CN(C)[C@@H]1C(O)=C(C(N)=O)C(=O)[C@@]2(O)C(O)=C3C(=O)c4c(O)cccc4[C@@](C)(O)[C@H]3C[C@@H]12 [TETRACYCLINE]
output: 17

* * *

Here, each record is paired with measured inhibition zone (IZ) data.
system: Staphylococcus aureus; test: Antibacterial activity against methicillin-resistant Staphylococcus aureus CMAH 0515 by disk diffusion method; assay type: functional
Note: unit mm is implicit; provide only the numeric part.

>  <Compound>
C=CC1C[N+]2(CC(=O)c3cccc4ccccc34)CCC1CC2[C@H](O)c1ccnc2ccc(OC)cc12.[Br-] (stereo not given in full)

>  <inhibition zone (IZ), mm>
25

$$$$
>  <Compound>
CN[C@H](CC(C)C)C(=O)N[C@H]1C(=O)N[C@@H](CC(N)=O)C(=O)N[C@H]2C(=O)N[C@H]3C(=O)N[C@H](C(=O)N[C@H](C(=O)O)c4cc(O)cc(O)c4-c4cc3ccc4O)[C@H](O)c3ccc(c(Cl)c3)Oc3cc2cc(c3O[C@@H]2O[C@H](CO)[C@@H](O)[C@H](O)[C@H]2O[C@H]2C[C@](C)(N)[C@H](O)[C@H](C)O2)Oc2ccc(cc2Cl)[C@H]1O

>  <inhibition zone (IZ), mm>
24

$$$$

input: Find the recorded inhibition zone (IZ) belonging to O=C(N[C@H](CO)[C@H](O)c1ccc([N+](=O)[O-])cc1)C(Cl)Cl and report it.
output: 27

input: Record: C=CC1C[N+]2(CC(=O)c3ccc(Br)cc3)CCC1CC2[C@H](O)c1ccnc2ccc(OC)cc12.[Br-] (stereo not given in full)
output: 22

input: What do you get for CN(C)[C@@H]1C(O)=C(C(N)=O)C(=O)[C@@]2(O)C(O)=C3C(=O)c4c(O)cccc4[C@@](C)(O)[C@H]3C[C@@H]12 ?
output: 17
